# Tested on: BT-549
# Experiment notes: NCI tumour cell line growth inhibition, 48 h
Active and inactive are the calls of the source. Cut-off read from the data, not from the text of the source: active = GI50 up to about 1.1 µM and inactive = higher. Positions of bridges follow the written chain, without caps; N, C: chain ends. Residues, ends and D or L forms follow the SMILES beside them.
// one of active, inactive, no free text

Answer briefly: the call reported for CC1(C)CCCCCCCCCC(C)(CCCO)C1=O (stereo not given) in this assay. inactive

Lab log entry: O=[N+]([O-])c1ccc(C(Nc2ccccc2)P(c2ccccc2)c2ccccc2)cc1 (stereo not given) — outcome as called in the assay? inactive

Per the records of this test, what outcome belongs to C=CC(c1ccccc1)[C@@]1(OC(C)=O)C(=O)C(=O)OC1C1COC(C)(C)O1 (stereo not given in full) ? inactive

I would be grateful if you could indicate the recorded call for FC(F)(F)c1ccc2c(c1)nc(-c1ccc(Cl)cc1)n2CC1CCCN2CCCCC12 (stereo not given) . inactive

Record lookup: outcome of this test for C/C(=N\NC(=S)N1CCN(c2ccccn2)CC1)c1ccccn1 ? active

What did this assay record as the result for CC(N/N=C(\S)N1CCCC1)c1cccnn1 (stereo not given) ? active

Given CCCC(CCC(N)=O)(CCC(N)=O)[N+](=O)[O-] , state the outcome it received in this test. inactive

What did this assay record as the result for COC(=O)C1(Cc2ccccc2)Cc2cc3c(cc2C1O)CCC3 (stereo not given) ? inactive

Could you kindly confirm the outcome this assay logged for NCc1ccc(O)c(O)c1O ? inactive

Hi, do you know how CCC(C)C1NC(=O)C(CC(C)C)NC(=O)C(C(C)C)NC(=O)C2CSSCC(NC1=O)C(=O)N2 (stereo not given) (cyclo(CCVLI); disulfide 1-2; configuration not given here) came out in this test? active
